B1: HESX1 (parent)
chain: ENKPSTCSFSIERILGLDQKKDCV

Variants of: B1
Test: protein stability index of a GFP-peptide fusion (GPS, HEK-293T) (PSI 1-6); higher = more stable;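 note: lentivirally expressed fusions sorted by FACS into six bins by GFP to DsRed ratio, PSI derived from sequencing read proportions per bin multiplied by bin number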
Settings: c terminus: a fixed tail appended
Recorded Endpoint: protein stability index
Give the figure by itself; no unit, no explanation.

Look over these answered cases.
> print(dat)
   mutation.spec  value
1           I14W   3.38
2            P4I   3.02
3           Q19R    3.2
4           I14P   4.34
5           L15W   2.46

If you can, please state the reported protein stability index value of S5K .
2.85

// lookup protein stability index for L17Q
3.59

Can you share its protein stability index? I mean this variant: D18R
2.76

Look up protein stability index: S5F
1.96

Requested read-out: protein stability index. Entry: R13V
2.12

Please report the recorded protein stability index for V24Q .
3.81
